What Production rate of Alvocidib was measured for each of the following?
assay.remarks: Evaluation of conversion rate to active form in buffer solution (Experimental Example 1)
Type: physicochemical
condition.notes: pH5.5, 2 hr, 37° C., 25 umol/L in buffer solution
Counter-ions that a name gives are not always drawn.
A bare number is not enough; add the unit after it.

Value of measured Production rate of Alvocidib for the entry CN1CC[C@H](c2c(OC(=O)N(C)C[C@H]3CCCCN3)cc(O)c3c(=O)cc(-c4ccccc4Cl)oc23)[C@H](O)C1 : 4.0%

Value of measured Production rate of Alvocidib for the entry CCN(C[C@H]1CCCCN1)C(=O)Oc1cc(O)c2c(=O)cc(-c3ccccc3Cl)oc2c1[C@H]1CCN(C)C[C@H]1O : 3.2%

Value of measured Production rate of Alvocidib for the entry CN1CC[C@H](c2c(OC(=O)N(C)CC3CCCCN3)cc(O)c3c(=O)cc(-c4ccccc4Cl)oc23)[C@H](O)C1 (stereo partly shown) : 3.5%

Value of measured Production rate of Alvocidib for the entry CCCN(C[C@@H]1CCCCN1)C(=O)Oc1cc(O)c2c(=O)cc(-c3ccccc3Cl)oc2c1[C@H]1CCN(C)C[C@H]1O : 3.9%

Value of measured Production rate of Alvocidib for the entry CN1CC[C@H](c2c(OC(=O)N(C)C[C@@H]3CCCCN3)cc(O)c3c(=O)cc(-c4ccccc4Cl)oc23)[C@H](O)C1 : 4.7%

Value of measured Production rate of Alvocidib for the entry CN1CC[C@H](c2c(OC(=O)N(CCF)CC3CCCCN3)cc(O)c3c(=O)cc(-c4ccccc4Cl)oc23)[C@H](O)C1 (stereo partly shown) : 9.4%

Value of measured Production rate of Alvocidib for the entry COCCN(CC1CCCCN1)C(=O)Oc1cc(O)c2c(=O)cc(-c3ccccc3Cl)oc2c1[C@H]1CCN(C)C[C@H]1O (stereo partly shown) : 6.9%

Value of measured Production rate of Alvocidib for the entry CCNC(=O)Oc1cc(O)c2c(=O)cc(-c3ccccc3Cl)oc2c1[C@H]1CCN(C)C[C@H]1O [Comparative Example 1, reference compound] : 98.9%

Value of measured Production rate of Alvocidib for the entry CCN(CCC1CCCCN1)C(=O)Oc1cc(O)c2c(=O)cc(-c3ccccc3Cl)oc2c1[C@H]1CCN(C)C[C@H]1O (stereo partly shown) : 0.0%

Value of measured Production rate of Alvocidib for the entry CCN(C[C@@H]1CCCCN1)C(=O)Oc1cc(O)c2c(=O)cc(-c3ccccc3Cl)oc2c1[C@H]1CCN(C)C[C@H]1O [Example 1, ditrifluoroacetate] : 3.5%

Value of measured Production rate of Alvocidib for the entry CCN(CC1CCCCN1)C(=O)Oc1cc(O)c2c(=O)cc(-c3ccccc3Cl)oc2c1[C@H]1CCN(C)C[C@H]1O (stereo partly shown) [Example 7, dihydrochloride] : 3.8%

Value of measured Production rate of Alvocidib for the entry CC(C)N(CC1CCCCN1)C(=O)Oc1cc(O)c2c(=O)cc(-c3ccccc3Cl)oc2c1[C@H]1CCN(C)C[C@H]1O (stereo partly shown) : 5.4%

Value of measured Production rate of Alvocidib for the entry CCCN(CC1CCCCN1)C(=O)Oc1cc(O)c2c(=O)cc(-c3ccccc3Cl)oc2c1[C@H]1CCN(C)C[C@H]1O (stereo partly shown) : 5.2%

----------
assay.remarks: Evaluation of conversion rate to active form in buffer solution (Experimental Example 1)
Type: physicochemical
condition.notes: pH6.5, 0.5 hr, 37° C., 25 umol/L in buffer solution
reported.property: Residual rate
A bare number is not enough; add the unit after it.

Value of measured Residual rate for the entry CN1CC[C@H](c2c(OC(=O)N(Cc3ccccc3)CC3CCCCN3)cc(O)c3c(=O)cc(-c4ccccc4Cl)oc23)[C@H](O)C1 (stereo partly drawn) : 82.2%

Value of measured Residual rate for the entry CN1CC[C@H](c2c(OC(=O)N(C)CC3CCCCN3)cc(O)c3c(=O)cc(-c4ccccc4Cl)oc23)[C@H](O)C1 (stereo partly drawn) : 85.3%

Value of measured Residual rate for the entry COCCN(CC1CCCCN1)C(=O)Oc1cc(O)c2c(=O)cc(-c3ccccc3Cl)oc2c1[C@H]1CCN(C)C[C@H]1O (stereo partly drawn) : 63.8%

# credit: patent US12617779B2
